Values were extracted from ChEMBL document CHEMBL1828605.

target: Human immunodeficiency virus type 1 reverse transcriptase (Human immunodeficiency virus 1)
Kd: recorded values
Write it as a number; the unit µM goes unstated.

Here's what some known entries look like.
INSERT INTO measurements (compound, units_label, test_result) VALUES
  ('Cc1cn([C@H]2C[C@H](N=[N+]=[N-])[C@@H](CO[P@](=O)(O)O[P@](=O)(O)OP(=O)(O)O)O2)c(=O)[nH]c1=O (single isomer, unassigned) [ZIDOVUDINE TRIPHOSPHATE]', 'µM', 55),
  ('Nc1ccn([C@@H]2CS[C@H](COP(=O)(O)OP(=O)(O)OP(=O)(O)O)O2)c(=O)n1 [LAMIVUDINE TRIPHOSPHATE]', 'µM', 0.13);

Let us examine a further case.
Query: Name the reported Kd value associated with the compound `[N-]=[N+]=N[C@@H]1C[C@@H](n2cnc3c(N)ncnc32)O[C@H]1COP(=O)(O)OP(=O)(O)OP(=O)(O)O`
Response: 15
